Assayed System: human RXFP1 (Homo sapiens)
Construct: expressed in transfected cells
Sequence (Q9HBX9 1-757): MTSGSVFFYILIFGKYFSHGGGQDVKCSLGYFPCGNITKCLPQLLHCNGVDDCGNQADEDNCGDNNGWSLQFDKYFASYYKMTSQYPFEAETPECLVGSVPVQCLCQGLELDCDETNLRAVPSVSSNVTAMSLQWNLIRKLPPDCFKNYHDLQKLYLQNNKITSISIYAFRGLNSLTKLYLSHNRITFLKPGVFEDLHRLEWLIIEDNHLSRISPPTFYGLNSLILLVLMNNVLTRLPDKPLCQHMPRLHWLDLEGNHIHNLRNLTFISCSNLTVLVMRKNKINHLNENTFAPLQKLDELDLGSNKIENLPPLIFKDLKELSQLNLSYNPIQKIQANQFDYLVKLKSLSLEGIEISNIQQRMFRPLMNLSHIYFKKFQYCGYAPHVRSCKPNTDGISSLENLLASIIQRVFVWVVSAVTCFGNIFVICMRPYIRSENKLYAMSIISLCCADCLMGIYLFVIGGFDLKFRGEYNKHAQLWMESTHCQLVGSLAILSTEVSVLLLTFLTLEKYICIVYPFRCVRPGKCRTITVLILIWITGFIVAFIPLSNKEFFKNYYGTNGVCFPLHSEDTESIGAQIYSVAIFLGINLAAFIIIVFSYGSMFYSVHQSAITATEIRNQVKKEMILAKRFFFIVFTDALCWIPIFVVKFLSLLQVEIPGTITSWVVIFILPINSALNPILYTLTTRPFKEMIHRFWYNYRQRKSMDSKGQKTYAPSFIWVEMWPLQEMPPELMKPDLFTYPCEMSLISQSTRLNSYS
Experiment Notes: RXFP1 cAMP assay (hRXFP1 HEK293 cAMP assay, HTRF)
Format: cell-based
Condition Parameters: HEK293 cells stably expressing human RXFP1, 30 min at room temperature, read-out: cAMP hRXFP1 HEK293 Assay EC50
Recorded EC50 split into classes lower bin = under 3 nM, middle bin = from 3 nM up to 200 nM, upper bin = 200 nM and over

Into which category would you place COc1ccc(-c2cccc3c2CN(C(=O)C2CCC2)C3)cc1C(=O)N[C@@H]1C2CCC(/C2=C/C2CC2)[C@@H]1C(=O)Nc1ccc(F)c(C(F)(F)F)c1 (stereo partly drawn) [compound 872] ?
middle bin

Into which category would you place CN(C)c1c(Cl)cc(C2=NOC3COCC23)cc1C(=O)N[C@H]1[C@@H](C(=O)Nc2ccc(F)c(C(F)(F)F)c2)[C@H]2CC[C@@H]1/C2=C\C1CC1 (single isomer, unassigned) [compound 474] ?
middle bin

Into which category would you place COc1ccc(C2=NOC3COCC23)cc1C(=O)N[C@H]1[C@@H](C(=O)N[C@H](C)C2(C)CCC2)[C@H]2CC[C@@H]1/C2=C\C1CC1 (stereo partly drawn) [compound 769] ?
middle bin

Into which category would you place COc1cccc(/C=C2\C3CCC2[C@H](C(=O)Nc2ccc(F)c(C(F)(F)F)c2)[C@@H]3NC(=O)c2cc(F)c(F)cc2OC)c1 (stereo partly drawn) [compound 19] ?
upper bin

Into which category would you place COc1ccc(-c2cnc3n2CCC3O)cc1C(=O)N[C@H]1[C@@H](C(=O)Nc2ccc(F)c(C(F)(F)F)c2)[C@H]2CC[C@@H]1/C2=C\C1CC1 (stereo partly drawn) [compound 754] ?
middle bin

Into which category would you place COc1ccc(C2CCCN2C(=O)OC(C)(C)C)cc1C(=O)N[C@@H]1C2CCC(/C2=C/C2CC2)[C@@H]1C(=O)Nc1ccc(F)c(C(F)(F)F)c1 (single isomer, unassigned) [compound 694] ?
upper bin

Into which category would you place C=C/C=C1\C2CCC1[C@H](C(=O)Nc1ccc(F)c(C(F)(F)F)c1)[C@@H]2NC(=O)c1cc(-c2cc(C(N)=O)ccc2F)ccc1OC (stereo partly drawn) [compound 163] ?
middle bin

Into which category would you place COc1c(I)cc(I)cc1C(=O)N[C@@H]1C2CCC(/C2=C/c2ccccc2)[C@@H]1C(=O)Nc1ccc(F)c(C(F)(F)F)c1 (stereo partly drawn) [compound 132] ?
upper bin

Into which category would you place COc1ccc(-c2cc([C@H](OC(=O)NC3CC3)C(F)(F)F)ccc2F)cc1C(=O)N[C@H]1[C@@H](C(=O)Nc2ccc(F)c(C(F)(F)F)c2)[C@H]2CC[C@@H]1/C2=C\CC(C)C [compound 929] ?
lower bin

Into which category would you place COc1ccc(-c2ccc(C(=O)O)cc2)cc1C(=O)N[C@H]1[C@@H](C(=O)Nc2ccc(F)c(C(F)(F)F)c2)[C@H]2CC[C@@H]1/C2=C/c1ccccc1 [compound 94] ?
upper bin

Into which category would you place COc1ccc(C2=NOC3CC(CO)CC23)cc1C(=O)N[C@H]1[C@@H](C(=O)Nc2ccc(F)c(C(F)(F)F)c2)[C@H]2CC[C@@H]1/C2=C\C1CC1 (stereo partly drawn) [Example 429] ?
lower bin

Into which category would you place COc1cc(F)c(F)cc1C(=O)N[C@@H]1C2CCC(/C2=C/c2cccc(CN3CCOCC3)c2)[C@@H]1C(=O)Nc1ccc(F)c(C(F)(F)F)c1 (stereo partly drawn) [compound 70] ?
upper bin

Into which category would you place COc1ccc(-c2cc(C3=NOC4COCC34)ccc2F)cc1C(=O)N[C@H]1[C@@H](C(=O)Nc2ccc(F)c(C(F)(F)F)c2)[C@H]2CC[C@@H]1/C2=C\C1CC1 (stereo partly drawn) [compound 910] ?
middle bin

Into which category would you place COc1ccc(-c2cc(C(OC(=O)Nc3ccccc3F)C(F)(F)F)ccc2F)cc1C(=O)N[C@@H]1C2CCC(/C2=C/C2CC2)[C@@H]1C(=O)Nc1ccc(F)c(C(F)(F)F)c1 (stereo partly drawn) [compound 223] ?
lower bin

Into which category would you place COc1cc(C)c(-c2nnc(CO)s2)cc1C(=O)N[C@H]1[C@@H](C(=O)N[C@H](C)C2(C)CC2)[C@H]2CC[C@@H]1/C2=C\C1CC1 [compound 810] ?
middle bin

Into which category would you place COc1ccc(C2=NOC3COCC23)c(F)c1C(=O)N[C@H]1[C@@H](C(=O)Nc2ccc(F)c(C(F)(F)F)c2)[C@H]2CC[C@@H]1/C2=C\C1CC1 (single isomer, unassigned) [compound 513] ?
middle bin

Into which category would you place COc1ccc(-c2cc(C(COC(=O)NC3CCC3)C(F)(F)F)ccc2F)cc1C(=O)N[C@H]1[C@@H](C(=O)Nc2ccc(F)c(C(F)(F)F)c2)[C@H]2CC[C@@H]1/C2=C\C1CCCC1 (stereo partly drawn) [compound 894] ?
lower bin

Into which category would you place COc1ccc(C2=NOC3COCC23)cc1C(=O)N[C@H]1[C@@H](C(=O)NCc2cccnc2C)[C@H]2CC[C@@H]1/C2=C\C1CC1 (stereo partly drawn) [compound 721] ?
upper bin

Into which category would you place COc1ccc(-c2cc(C(=O)O)ccc2F)cc1C(=O)N[C@@H]1C2CCC(/C2=C/c2cncnc2)[C@@H]1C(=O)Nc1ccc(F)c(C(F)(F)F)c1 (stereo partly drawn) [compound 129] ?
middle bin

Into which category would you place COc1ccc(C2=NOC3CC(CO)CC23)cc1C(=O)N[C@H]1[C@@H](C(=O)Nc2ccc(F)c(C(F)(F)F)c2)[C@H]2CC[C@@H]1/C2=C\C1CCCC1 (stereo partly drawn) [compound 457] ?
lower bin

Cited source: patent US20250221966A1
